Experiment: yeast display, Sf9 membrane polyspecificity reagent, FACS + sequencing; frameworks hold sequencing errors
Measurement type: polyreactivity (PSR sort gate)

>>> assay_result("QVQLVDSGGGLVQAGGSLRLSCAASGINFVWNVMGWYRQAPGKERELVADITSGGRTHYADSVKGRFTISRDNAKNTVYVQMNSLKPDDTAVYYCAARKYWRYQNYDYWGQGTQVTVSS")
"low polyreactivity"
>>> assay_result("QVQLVESGGGLVQAGGSLRLSCAASGSTFKQYAMGWYRQAPGKERELVADINVRDGGTYYADSVKGRFTISRDNAKNTVYLQMNSLKPEDTAVYYCAKDYYACYWEMDYWGQGTQVTVSS")
"low polyreactivity"
>>> assay_result("QVQLVESGGGLVQAGGSLRLSCAASGSIFGPNAMGWYRQAPGKERELVAAISKSGSSTYYADSVKGRFTISRDNAKNTVYLQMNSLKREDTAVYYCAAKVSYSGVFSYYYWGQGTQVTVSS")
"high polyreactivity"
>>> assay_result("QVQLVESGGGLVQAGGSLRLSCAASGRTFKYNAMGWYRQAPGKERELVATISGSGGRTYYADSVKGRFTISRDNAKNTVYLQMNSLTPEDTAVYYCAAVPSYHSTSPFYYWGLGTQVTVSS")
"high polyreactivity"
>>> assay_result("QVQLVESGGGLVQAGGSLRLSCAASGFTFAFYAMGWYRQAPGKERELVAAISWDGVTTYYADSVKGRFTISRDNAKNTVYLQMNSLKPEDTAVYYCAADYPDYAGSFWPSGMYYWGQGTQVTVSS")
"low polyreactivity"

====

Test: yeast display, Sf9 membrane polyspecificity reagent, FACS + sequencing; frameworks hold sequencing errors
Measurement type: polyreactivity (PSR sort gate)

>>> assay_result("QVQLVESGGGLVQAGGSLRLSCAASGITIVRNAMGWYRQAPGKERELVAAISSGGSTYYADSVKGRFTISRDNAKISVYLQMNSLKPEDTAVYYCAAVPEYYEYSPYDYWGQGTQVTVSS")
"low polyreactivity"
>>> assay_result("QVQLVESGGGLVQAGGSLRLSCAASGRIFWINDMGWSRQAPGKERELVAAIRSIGGSTYYADSVKGRFTISRDNGKNTVYLQMNSLKPEDTAVYYCAAKSSPKVRGRYYYWGQGTQVTVSS")
"low polyreactivity"
>>> assay_result("QVQHVESGGGLVQAGGSLRLSCAASGRTFYLNAMGWSRQAPGKARELVATISYTGDTTYYADSVKGRFTISRDNAKNTVYLQMNSLKPEDTAVYYCAKDYSLTQQRHAAYIVGSVDYWGQGTQVTVSS")
"high polyreactivity"
>>> assay_result("QVQLVESGGGLVQAGGSLRLSCAASGIIFAYYAMGWYRQAPGKERELVAAISRSGGITYYADSVKGRFTISRDNAKNTVYLQMNSLKPEDTAAYYCARYSCRPYDYWGQGTQVTVSS")
"high polyreactivity"
>>> assay_result("QVQLVASGGGLVQSGGSLRLSCASSGSTFFRYAMGWYRHAPGKERELVAAISWSGGPTYYADSVKGRFTISRDNAKNTVFLQMNSLKPQDTAVYYCNAVRQGHILDYWGQGSQVTVSS")
"low polyreactivity"
>>> assay_result("QVQLQESGGGLVQAGGSLRLSCAASGTITVLYKMGWFRQAPGKEREFVASMNYGTSTYYADSVKGRFTVSRDSAKNTVYLQMNSLKPEDTAVYYCAAAYRWQDVYRYWGQGTQVTVSS")
"low polyreactivity"
>>> assay_result("QVQLVESGGGLVQAGGSLRLSCAASGSIYYFNAMGWYRQAPGKERELVASITSGGSTNYADSVKGRFTLSRDNAKNTVYLQMNSLNPEDTAVYYCNARFPYLSRWLVRGLASYDYWGQGTQVTVSS")
"low polyreactivity"
>>> assay_result("QVQLVESGGGLVQAGGSIRLSCAASGSIFYYGLGWYRQAPGKERELVAAITRGGSTYYADSVKGRFTISRDNAKNTVYLQMNSLKPEDTAVYYCAKYPVGGYDYWGQGTQVTVSS")
"low polyreactivity"
>>> assay_result("QVQLVESGGGLVQAGGSLRLSCAASGRIFGGYAMGWYRQAPGKERELVAAITQSGGSTYYADSVKGRFTISRDNAKNTVYLQMNSLKPEDTAVYYCATYAWYIFGYWGQGTQVTVSS")
"low polyreactivity"
>>> assay_result("QVQLVESGGGLVQAGGSLRLSCAASGSTLKLNAMGWYRQAPGKERELVAAITRSGGSTYYADSVKGRFTISRDNAKNTVYLQMNSLKPEDTAVYYCAADVLWDEFGYWGQGTQVTVSS")
"low polyreactivity"
>>> assay_result("QVQLVESGGGLVQAGGSLRLSCAASGYTFGTYDMGWYRQAPGKERELVAAISIGGSTNYADSVKGRFTISRDNAKNTVYLQMNSLKREDTAVYYCAAEVNVGTLLLSVIVEDGDYWGQGTQVTVSS")
"low polyreactivity"

====

Experiment: yeast display, Sf9 membrane polyspecificity reagent, FACS + sequencing; frameworks hold sequencing errors
Measurement type: polyreactivity (PSR sort gate)

>>> assay_result("QVQLVESGGGLVQAGGSLRLSCAASGRIIGRYAMGWYRQAPGKERELVAGITIRGGSTYYADSVKGRFTISRDNAKNTVYLQMNSLKPEDTAVYYCAARHGSGFRYYPGHAGGYWGQGTQVTVSS")
"low polyreactivity"
>>> assay_result("QVQLVESGGGLVQAGGSLRLSCAASGIIFQYYVMGWYRQAPGKERELVAAIDKSGGSTYYADSVKGRFTISRDNAKNTVYLQMNSLKPEDTAVYYCNRDRGWTRFYVYSTGAWLYDYWGQGTQVTVSS")
"low polyreactivity"
>>> assay_result("QVQLVESGGGLVQAGGSLRLSCAASGFIFSYYAMGWYRPAPGKERELVAAITDSGGSTYYADSVKGRFTISRDNAKNSVYLQMNSLKPEYTAVYYCATEIEQTAEYDYLGQGTQVTVSS")
"low polyreactivity"
>>> assay_result("QDQHVESGGCLVQAGGSLRLSCAASGRTFVRNTMGWYRQAPGKEREFVAAISRSGGNTHYADSVKGRFTISRDNAKNTVYLQMNSLKPEDTAVYYCATRAGYEVYPNKMNYWGQGTQVTVSS")
"high polyreactivity"
>>> assay_result("QVQLVESGGGLVQAGGSLRLSCAASGFTFDYYTMGWYRQAPGKERELVATITRSAGRTYYADSVKGRFTISRDNAKNTVYLQMNSLKPEDTAVYYCNADAYVYFDDGDYWGQGTQVTVSS")
"low polyreactivity"
>>> assay_result("QVQLVESGGGLVQAGGSLRLSCAASGSIFGSNMGWYRQAPGKERELVAAISSRGGRTYYADSVKGRFTISRVNAKNTVYLQMNSQKPEDTAVYYCATRTFRGGRGYEYWGQGTQVTVSS")
"high polyreactivity"
>>> assay_result("QVQHVESGGGLVQAGGSLRLSCAASGRTFRANTMGWYRQAPGKERELVASIRGNGGTTYYADSVKGRFTISRDNAKNTVYLQMNSLKPEDTAVYYCAAGLYYIRWSRRYEYWGQGTQVTVSS")
"high polyreactivity"
>>> assay_result("QVQLVESGGGLVQAGGSLRLSCAASGSTFSPYAMGWYRQAPGKERELVAAITRSGSSTYYADSVKGRFTISRDNAKNTVYLQMNSLKPEDTAVYYCAADTGVTRSYRYTSWRIKYESWGQGTQVTVSS")
"low polyreactivity"
>>> assay_result("QVQLVESGGGLVQAGGRLRLSCAASGSTSLYYAMGWYRQAPGKEREFVAAITWSGGSTYYADSGKGRFTITRDNAKNTVYLQMNSLKPEDTAVYYCAGRSYGYSAGYYWGQGTQVTVSS")
"high polyreactivity"
>>> assay_result("QVQLVESGGGLVQAGGSLRLICAASGFTFYYYAMGWYRQAPGKEWELVAAISRNGVSTYYADSVKGRFTISRDNAKNTVYLQMNSLKPEDTAVYYCASGYGSLHVNYLGQGTQVTVSS")
"low polyreactivity"
>>> assay_result("QVQLVESGGGLVQAGGSLRLSCAASGSIFDFYAMGWYRQAPGKERELVAAINSGGRTYADSVKGRFTISRDNAKNTVYLQMNSLKPEDTAVYYCAAEYQYLSVEVTDIWYLTKYDYWGQGTQVTVSS")
"low polyreactivity"

====

Test: yeast display, Sf9 membrane polyspecificity reagent, FACS + sequencing; frameworks hold sequencing errors
Measurement type: polyreactivity (PSR sort gate)

>>> assay_result("QVQLVETWGGLVQAGGSLRLSCPASGSIFPRKAMGWYRQAPGKERELVAGISSGGSTNYADSVKGRFTISRDNAKNTVYLQMNSLKPEDTAVYYCAARQWIRNLGFGYSIYNYWGQGTQVTVSS")
"high polyreactivity"
>>> assay_result("QVQLVESGGGLVQAGGSLRLSCAASGSTFGGNAMGWYRQAPGKERELVAAISSSGGSTYYADSVKGRFTISRDNAKNTVYLQMNSLKPEDTAVYYCAALYHWTYDYWGQGTQVTVSS")
"low polyreactivity"
>>> assay_result("QVQLVESGGGLVQAGGSLRLSCAASGSTFRRNAMGWYRQAPGKERELVAAITRRGGTYYADSVKGRFTISRDNAKNTVYLQMNSLKPEDTAVYYCAADRSYYDWRYGGFDYWGQGTQVTVSS")
"high polyreactivity"
>>> assay_result("QVQLVESGGGLVQAGGSLRLSCAASGRIFKYNAMGWYRQAPGKERELVAAIRRSGGSTYYADSVKGRFTISRDNAKNPVYLQMNSLNPEDTAVYYCAATGYVGGIYGHYPRGYWGQGTQVTVSS")
"high polyreactivity"
>>> assay_result("QVQLVESGGGLVQAGGSLRLSCAASGSTFYKYGMGWYRQAPGTERELVAAISGSGDSTYYADSVKGRFTISRDNAKNTVYLQMNSLKPEDTAVYYCNAGPWWYLHEYDYWGQGTQVTVSS")
"low polyreactivity"
>>> assay_result("QVQLVESGGGLVQAGGSLRLSCAASGFTFKYYAMGWYRQAPGKERELVAVISSSGGSTYYADSVKGRFTISRDNAKNTVYLQMNSLKPEDTAVYYCNTDAYWHRQQYDYWGQGTQVTVSS")
"low polyreactivity"
>>> assay_result("QVQLVESGGGLVQAGGSLRLSCAASGLISYAYAMGWYRQAPGKERELVAAIRSSGSTYYADSVKGRFTISRDNAKNTVYLQMNSLKPEDTAVYYCAAYVWRRGDGYYYWGQGTQVTVSS")
"high polyreactivity"
>>> assay_result("QVQLEESGGGLVQAGGSLRLSCAASGRIFSRNARGWYRPSPGKERELVAASSSGGGSTYYADSVKGRFTISRDNAKNTVYLLMNSLKPEDTAVYYCAARTRITYDWGQGTQVTVSS")
"low polyreactivity"
>>> assay_result("QVQVVESGGGLVQAGGSLRLSCAASGSTFRYYAMGWYRQAPGKERELVAGISKVGGRTYADSVKGRFTISRDNAKYTVYLQMNSLKTEDTAVYYCAADAVRRTPGYDYWGHGTQVTVSS")
"high polyreactivity"
>>> assay_result("QVQLVESGGGLVQSGGSLRLSCAASGFIFGEYTMGWNRQAPGKEREFVAAISWSGGSTSYADSVKGRFTISRDNAKNTVYLQMNSLKPEDTAVYYCAARYGSDYDYWGQGTQVTVSS")
"low polyreactivity"
>>> assay_result("QDQLVESGGGLVQAGGSLRLSCAASGSTFVSNAMVWYRQAPGKERELVAAISSSGGRTSYADSVKGRFTISRDNAKNTVYLQMNSLKPEDTAVYYCAARFKSVDYVQYYYWGQGTQVTVSS")
"low polyreactivity"
>>> assay_result("QVQLVESGGGLVLAGGSLRLSCAASGSTFFSYMGWYREAPGKERELVAANTSGAITYYADSVKGRFTISRDNAKNTVYLQMNSLKPEDTAVYYCNTDRYYVTLRNLEMDYWGQGTQVTVSS")
"low polyreactivity"
>>> assay_result("QVQLVESGGGLVQAGGSLRLSCAASGPTFGGYTMGWYRQAPGKERELVAAITWSGGRTYYADSVKGRFTISRDNAKNTVYLQMNSLKPEDTAVYFCATSRSRERPLHNGPYYYWGLGTQVTVSS")
"high polyreactivity"
>>> assay_result("QVQLVESGGGLVQAGGSLRLSCAASGNTFYGYVMGWYRQAPGKERELVAAISWSGGRTYYADSVKGRFTISRDNAKNTVYLQMNSLKPEDTAVYYCAAVLLYYIYDYWGQGTQVTVSS")
"low polyreactivity"
>>> assay_result("QVQLVESGGGLVQAGGSLRLSCAASGSISYIYTMGWDRQAPGKQRELVAAMSGSGSTYYADSVKGRFTISRDNAKNTVYLQMNSLKQEDTAVHYCNAGSGGLNFQEVPHGYDYWGQGTQVTVSS")
"low polyreactivity"
>>> assay_result("QVQLVESGGGLVQAGGSLRLSCAASGSIFVSYAMGWYRQAPGKERELVAAITSIGTRTYYADSVKGRFTISRDNAKNTVYLQINSLKPEDTAVYYCNAPRFWSRHGLRDYWGQVTQVTVSS")
"high polyreactivity"
>>> assay_result("QVQLVESGGGLVQAGGSLRLSCAASGSIFSIYAMGWYRQAPGKERELVAAISSGGSTYADSVKGRFTISRDNAKNTVYLQMNSLKPEDTAVYYCAADRRGYRGYDYWGQGTQVTVSS")
"low polyreactivity"
>>> assay_result("QFQLVESGGGLVQAGGSLRLSCAASGRIFGDNAMGWYRQAPGKERELVADIDSGGRTNYADSVKGRFTISRDNAKNTVYLQMNSLKPEDTAVYYCARDDIAYLVEYDYWGQGTQVTVSS")
"low polyreactivity"
>>> assay_result("QVQLVESGGGLVQAGGRLRLSCAASGRTLWIYAMGWYRQAPGKERELVASITTRGGSTYYADSVKGRFTISRDNAKNTVYLQMKSLKPEDTAVYYCAAEGYTYYTYDPHDYWGQGTQVTVSS")
"high polyreactivity"
>>> assay_result("QVQLVESGGGLVQAGGSLRLSCAASGGTIAGYAMGWYRQAPGKARELVASISDGGSTNYADSVKGRFTISRDNAKNTVYLQMNSLKPEDTAVYYCAVQGSRTENYDWYYYWGQGTQVTVSS")
"low polyreactivity"
>>> assay_result("QVQHVESGGGLVQAGGSLRLSCAASGRIFSTNPMGWSRQAPGKERELVAAITTSGGITYYADSVKGRFTISRDNAKNTVYLQMNSLKPEDTGVYYCNTGYYGRLRDDYWGQGTQVTVSS")
"high polyreactivity"
